# RUN_DESCRIPTION: physchem
# DETAILS: pH 5.5, water, thermodynamic from solid
# Method: The aqueous solubility of zoledronic acid and disodium zoledronate tetrahydrate was determined. One gram of the test compound was measured in to a beaker. Demineralized water (pH 5.5) was then added in small increments to the test compound, and sonification was applied to the mixture. The procedure was continued until complete dissolution was achieved. Full dissolution was determined to have been reached when a clear solution was present with no visible material. […]
READOUT_NAME: solubility

> print(dat)
                                   compound  readout.name  value.measured
1  O=P(O)(O)C(O)(Cn1ccnc1)P(=O)(O)O [zoledronic acid]    solubility    ≥ 2500 µg/mL

Data origin: patent US20130303485A1
